- System: K4 kissing-loop RNA reporter;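 further: bound reporter read as fluorescence of individual clusters on recovered sequencing chips by microscopy, with normalized cluster intensities fitted with a binding model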
- assayExplanation: apparent KD of K4 kissing-loop reporter; higher = weaker reporter binding
- reportedConditions: Eterna round: R107; input ligand: none
quantityMeasured: apparent KD of K4 kissing-loop reporter (nM)

CCCGUGGGUUUGAGAGGGCUUGUGGGAAGUAAGGAUAUUUAGGGAGAAAGAAGGUACUAUAGAAUAUAGUGAUGUUAUAUAUGGG [#06 K4 FMN A Same State] | 232
GGCCGGAAGGCGAGCGCUCCCACUCCGGAAGGAGCGCCCGUAAGGGCAGGUAGGUCGCCGGAGUGAUGUUCCGGUGGAGGGCUCG [#2 Exclusion - Arginine A Attempt #21 (Inspired by Omei)] | 180
AAGGUCACCACUACAGUGAUGUUGUGGGAGCAGGAUAUGCAGAAAUGCAGAAGGGCUCGCUCCCGGUGACCGAAUGAAACAUUCA [Omei KL FMN A SS A v5] | 981
GUCUGCGUCUCGGCCGCCACUCACUAGUGAUGUUAGUAAGGAGCGACUAGAGAAGUCCAGUUGAUGAGGACCGGGAGACGCAAAA [Exclusion Tryptophan B GF4] | 95.7
UGAUACCAGACGGCCGCCACUGCACCAGUCAAUGACUGAGUGUAGUAAUGCUCAGUGAUGUUGAGUAGGACCGGGUCUGGUAUCU [Mod of Eli's TrypBX 8 v1] | 128
GGUGUUGUUUGUGCUGUUUUCUUCGUUUCUCGAGGACCGGUACGGCCGCCACUCGAGUGAUGUUUGGGUAGCGAUCUUUGUUAGU [Bdazzled - #4- Exc. Tryptophan A] | 345
GAUAGGAAACUAUCAAAUCGGGAAACCGAUACCAGUAUGGAUUCAUACCCUUGGCAGCGGGAUUAUAAAAUAGGAGUGAUGUUCC [Theophylline A K4 16] | 220
CCAGGAUGAUGAGGAUGAUAAAUUACUGAAGGAGCGCAUAUGGUUGCAGGUAGGUCGCGGUGAAUAAGUAUAGUGAUGUUAUGCC [SSArgA.Y] | 561
GGAUCCUAGGCGGCCGCCACUCCAAUUGGCCGAAAGGCCUGAUACCGAGUGAUGUUCGGUUGGAGGAGGACCGGGCCUAGGAUCC [#2 Exclusion - Tryptophan B Attempt #2 (HarryS)] | 118
UGACUACAUAAGGAAUAAUCCUAGUGAUGUUAGGAUAUGCUGAUAAGCAGAAGGAACGGAGAUCGAAGGAUCUCAUAUGUAGUCU [whbob_Ex_FMNA__2th194] | 103
UUUUGGUUCUGAGGAUAUUCGAAGAAAUAUAGUGAUGUUAUAUAAGGAGGAGGAUGGAGGGAGGAAGGAGAAGGCAGAAGAGGAG [ExFMNB.I] | 700
